Sourced from patent US20240174618A1

# Pre-emergence efficacy against SETVI listing for each entry below
- System: Setaria viridis (SETVI)
- experiment: A. Herbicidal pre-emergence efficacy, SETVI
- Assay type: in vivo
- experimental-setup: dosage 320 g/ha
measured-quantity: Pre-emergence efficacy against SETVI (%)

compound: C=CCCS(=O)(=O)Oc1c(F)cccc1Oc1ncc(Cl)cn1
measured-quantity: Pre-emergence efficacy against SETVI
observed-measurement: 90
//
compound: CCC(C)S(=O)(=O)Oc1ccccc1Oc1ncc(Cl)cn1 (stereo not drawn)
measured-quantity: Pre-emergence efficacy against SETVI
observed-measurement: 90
//
compound: Cc1cccc(Oc2ncc(Br)cn2)c1OS(=O)(=O)CCCC(F)(F)F
measured-quantity: Pre-emergence efficacy against SETVI
observed-measurement: 100
//
compound: N#Cc1cc(Cl)cnc1Oc1ccccc1OS(=O)(=O)CCCCl
measured-quantity: Pre-emergence efficacy against SETVI
observed-measurement: 100
//
compound: O=S(=O)(CCCC(F)(F)C(F)(F)F)Oc1c(F)cccc1Oc1ncc(Cl)cn1
measured-quantity: Pre-emergence efficacy against SETVI
observed-measurement: 100
//
compound: O=S(=O)(CCCCl)Oc1ccccc1Oc1ncc(Cl)cn1
measured-quantity: Pre-emergence efficacy against SETVI
observed-measurement: 100
//
compound: COCCS(=O)(=O)Oc1c(F)cccc1Oc1ncc(Cl)cn1
measured-quantity: Pre-emergence efficacy against SETVI
observed-measurement: 100
//
compound: CCCCS(=O)(=O)Oc1ccccc1Oc1ncc(Cl)cn1
measured-quantity: Pre-emergence efficacy against SETVI
observed-measurement: 90
//
compound: COCCS(=O)(=O)Oc1ccccc1Oc1ncc(Cl)cn1
measured-quantity: Pre-emergence efficacy against SETVI
observed-measurement: 90

* * *

# Pre-emergence efficacy against KCHSC listing for each entry below
- Test system: Kochia scoparia (KCHSC)
- experiment: A. Herbicidal pre-emergence efficacy, KCHSC
- Format: in vivo
- experimental-setup: pre-emergence, dosage 1280 g/ha
measured-quantity: Pre-emergence efficacy against KCHSC (%)

molecule: O=S(=O)(CCCC(F)(F)C(F)(F)F)Oc1c(Br)cccc1Oc1ncc(Cl)cn1
observed-measurement: 100

molecule: Cc1cccc(Oc2ncc(Cl)cn2)c1OS(=O)(=O)CC1CC(F)(F)C1
observed-measurement: 100

molecule: Cc1cccc(Oc2ncc(F)cn2)c1OS(=O)(=O)CCCC(F)(F)F
observed-measurement: 90

molecule: O=S(=O)(CC=C(Cl)Cl)Oc1c(Br)cccc1Oc1ncc(Cl)cn1
observed-measurement: 90

molecule: O=S(=O)(CC(F)(F)F)Oc1ccccc1Oc1ncc(Cl)cn1
observed-measurement: 100

molecule: O=S(=O)(CCCC(F)(F)F)Oc1ccccc1Oc1ncc(Cl)cn1
observed-measurement: 100

molecule: N#Cc1cccc(Oc2ncc(Cl)cn2)c1OS(=O)(=O)CCCCl
observed-measurement: 100

molecule: O=S(=O)(CCC(F)=C(F)F)Oc1c(Cl)cccc1Oc1ncc(Cl)cn1
observed-measurement: 90

molecule: Cc1cccc(Oc2ncc(Cl)cn2)c1OS(=O)(=O)CCCC(F)(F)F
observed-measurement: 90

molecule: O=S(=O)(CC1CC1)Oc1ccccc1Oc1ncc(Cl)cn1
observed-measurement: 100

molecule: Cc1cccc(Oc2ncc(Br)cn2)c1OS(=O)(=O)CCCC(F)(F)F
observed-measurement: 90

molecule: O=S(=O)(CCC1CC1(Cl)Cl)Oc1c(F)cccc1Oc1ncc(Cl)cn1 (stereo not shown)
observed-measurement: 100

molecule: N#Cc1ccc(Oc2ccccc2OS(=O)(=O)CCCCl)nc1
observed-measurement: 90

molecule: CCC(C)S(=O)(=O)Oc1ccccc1Oc1ncc(Cl)cn1 (stereo not shown)
observed-measurement: 100

molecule: CS(=O)(=O)Oc1ccccc1Oc1ncc(Cl)cn1
observed-measurement: 100

molecule: O=S(=O)(CCCC(F)(F)C(F)(F)F)Oc1c(F)cccc1Oc1ncc(Cl)cn1
observed-measurement: 100

molecule: N#Cc1cc(Cl)cnc1Oc1ccccc1OS(=O)(=O)CCCCl
observed-measurement: 100

molecule: Cc1cccc(OS(=O)(=O)CCCCl)c1Oc1ncc(Cl)cn1
observed-measurement: 100

molecule: CCCCCS(=O)(=O)Oc1ccccc1Oc1ncc(Cl)cn1
observed-measurement: 100

* * *

- System: Zea mays (ZEAMX)
- experiment: D. Pre-emergence effect on useful plants, ZEAMX
- Type: in vivo
- experimental-setup: useful plant, application rate 80 g/ha
measured-quantity: Pre-emergence efficacy against ZEAMX in %

compound: Cc1cccc(Oc2ncc(F)cn2)c1OS(=O)(=O)CCCC(F)(F)F [Example I-46]
observed-measurement: 0%
--
compound: O=S(=O)(CCC(F)(F)F)Oc1c(Br)cccc1Oc1ncc(F)cn1 [Example I-43]
observed-measurement: 0%
--
compound: CC(C)CCS(=O)(=O)Oc1ccccc1Oc1ncc(Cl)cn1 [Example I-25]
observed-measurement: 0%
--
compound: O=S(=O)(CC1CC1)Oc1ccccc1Oc1ncc(Cl)cn1 [Example I-23]
observed-measurement: 0%
--
compound: COCCS(=O)(=O)Oc1c(F)cccc1Oc1ncc(Cl)cn1 [Example I-52]
observed-measurement: 0%
--
compound: O=S(=O)(CCCC(F)(F)F)Oc1c(Cl)cccc1Oc1ncc(Cl)cn1 [Example I-39]
observed-measurement: 0%
--
compound: O=S(=O)(CCCCl)Oc1ccccc1Oc1ncc(F)cn1 [Example I-5]
observed-measurement: 20%
--
compound: O=S(=O)(CCC1CC1)Oc1c(F)cccc1Oc1ncc(Cl)cn1 [Example I-55]
observed-measurement: 10%
--
compound: O=S(=O)(CCCC(F)(F)C(F)(F)F)Oc1c(F)cccc1Oc1ncc(Cl)cn1 [Example I-68]
observed-measurement: 10%
--
compound: O=S(=O)(CCCCl)Oc1cccc(F)c1Oc1ncc(Cl)cn1 [Example I-13]
observed-measurement: 10%
--
compound: N#Cc1cccc(Oc2ncc(Cl)cn2)c1OS(=O)(=O)CCCC(F)(F)F [Example I-81]
observed-measurement: 0%
--
compound: N#Cc1cccc(Oc2ncc(Cl)cn2)c1OS(=O)(=O)CC1CC1(Cl)Cl (stereo not drawn) [Example I-78]
observed-measurement: 0%
--
compound: N#Cc1cccc(Oc2ncc(Cl)cn2)c1OS(=O)(=O)CCC(F)(F)F [Example I-82]
observed-measurement: 0%
--
compound: O=S(=O)(CCC(F)(F)F)Oc1c(F)cccc1Oc1ncc(Cl)cn1 [Example I-48]
observed-measurement: 0%
--
compound: Cc1cccc(Oc2ncc(F)cn2)c1OS(=O)(=O)CCC(F)(F)F [Example I-45]
observed-measurement: 0%

* * *

- Test system: Echinochloa crus-galli (ECHCG)
- experiment: B. Herbicidal post-emergence efficacy, ECHCG
- Assay type: in vivo
- experimental-setup: 80 g/ha, rated visually after about 3 weeks
# Post-emergence efficacy against ECHCG in % listing for each entry below
measured-quantity: Post-emergence efficacy against ECHCG in % (%)

item-smiles: O=S(=O)(CCCC(F)(F)F)Oc1ccccc1Oc1ncc(Cl)cn1
subject-of-test: Echinochloa crus-galli (ECHCG)
observed-measurement: 100

item-smiles: Cc1cccc(Oc2ncc(F)cn2)c1OS(=O)(=O)CCCC(F)(F)F
subject-of-test: Echinochloa crus-galli (ECHCG)
observed-measurement: 90

item-smiles: O=S(=O)(CCCC(F)(F)F)Oc1c(F)cccc1Oc1ncc(Cl)cn1
subject-of-test: Echinochloa crus-galli (ECHCG)
observed-measurement: 90

item-smiles: O=S(=O)(CCCC(F)(F)F)Oc1c(F)cccc1Oc1ncc(F)cn1
subject-of-test: Echinochloa crus-galli (ECHCG)
observed-measurement: 100

item-smiles: O=S(=O)(CCCCl)Oc1ccccc1Oc1ncc(Cl)cn1
subject-of-test: Echinochloa crus-galli (ECHCG)
observed-measurement: 90

item-smiles: O=S(=O)(CCCCl)Oc1ccccc1Oc1ncc(F)cn1
subject-of-test: Echinochloa crus-galli (ECHCG)
observed-measurement: 90

item-smiles: O=S(=O)(CC1CC(F)(F)C1)Oc1c(F)cccc1Oc1ncc(Cl)cn1
subject-of-test: Echinochloa crus-galli (ECHCG)
observed-measurement: 90

item-smiles: O=S(=O)(CCC(F)(F)F)Oc1c(F)cccc1Oc1ncc(F)cn1
subject-of-test: Echinochloa crus-galli (ECHCG)
observed-measurement: 90

item-smiles: O=S(=O)(CCCCCl)Oc1ccccc1Oc1ncc(Cl)cn1
subject-of-test: Echinochloa crus-galli (ECHCG)
observed-measurement: 90

item-smiles: O=S(=O)(CCC(F)(F)F)Oc1c(Cl)cccc1Oc1ncc(Br)cn1
subject-of-test: Echinochloa crus-galli (ECHCG)
observed-measurement: 90

* * *

- System: Setaria viridis (SETVI)
- experiment: A. Herbicidal pre-emergence efficacy, SETVI
- Format: in vivo
- experimental-setup: dosage 320 g/ha

compound: O=S(=O)(CCC(F)=C(F)F)Oc1c(Br)cccc1Oc1ncc(Cl)cn1
subject-of-test: Setaria viridis (SETVI)
Pre-emergence efficacy against SETVI [%]: 90
--
compound: Cc1cccc(Oc2ncc(Cl)cn2)c1OS(=O)(=O)CC1CC1(Cl)Cl (stereo not shown)
subject-of-test: Setaria viridis (SETVI)
Pre-emergence efficacy against SETVI [%]: 100
--
compound: O=S(=O)(CC1CCCO1)Oc1c(F)cccc1Oc1ncc(Cl)cn1 (stereo not shown)
subject-of-test: Setaria viridis (SETVI)
Pre-emergence efficacy against SETVI [%]: 100
--
compound: O=S(=O)(CCCC(F)F)Oc1c(F)cccc1Oc1ncc(Cl)cn1
subject-of-test: Setaria viridis (SETVI)
Pre-emergence efficacy against SETVI [%]: 100
--
compound: Cc1cccc(Oc2ncc(Br)cn2)c1OS(=O)(=O)CCC(F)(F)F
subject-of-test: Setaria viridis (SETVI)
Pre-emergence efficacy against SETVI [%]: 100
--
compound: O=S(=O)(CCCC(F)(F)F)Oc1c(F)cccc1Oc1ncc(Br)cn1
subject-of-test: Setaria viridis (SETVI)
Pre-emergence efficacy against SETVI [%]: 100
--
compound: O=S(=O)(CCCC(F)(F)F)Oc1c(F)cccc1Oc1ncc(Cl)cn1
subject-of-test: Setaria viridis (SETVI)
Pre-emergence efficacy against SETVI [%]: 100
--
compound: O=S(=O)(CCCC(F)(F)F)Oc1c(Br)cccc1Oc1ncc(F)cn1
subject-of-test: Setaria viridis (SETVI)
Pre-emergence efficacy against SETVI [%]: 100
--
compound: O=S(=O)(CCC(F)(F)F)Oc1c(Br)cccc1Oc1ncc(F)cn1
subject-of-test: Setaria viridis (SETVI)
Pre-emergence efficacy against SETVI [%]: 100
--
compound: O=S(=O)(CC1CC(F)(F)C1)Oc1c(Br)cccc1Oc1ncc(Cl)cn1
subject-of-test: Setaria viridis (SETVI)
Pre-emergence efficacy against SETVI [%]: 90
--
compound: O=S(=O)(CCl)Oc1ccccc1Oc1ncc(Cl)cn1
subject-of-test: Setaria viridis (SETVI)
Pre-emergence efficacy against SETVI [%]: 100
--
compound: CC(C)CS(=O)(=O)Oc1ccccc1Oc1ncc(Cl)cn1
subject-of-test: Setaria viridis (SETVI)
Pre-emergence efficacy against SETVI [%]: 100
--
compound: O=S(=O)(CCC(F)(F)F)Oc1ccccc1Oc1ncc(Cl)cn1
subject-of-test: Setaria viridis (SETVI)
Pre-emergence efficacy against SETVI [%]: 100
--
compound: Cc1cccc(Oc2ncc(Cl)cn2)c1OS(=O)(=O)CC1CC(F)(F)C1
subject-of-test: Setaria viridis (SETVI)
Pre-emergence efficacy against SETVI [%]: 90
--
compound: O=S(=O)(CCC(F)(F)F)Oc1c(F)cccc1Oc1ncc(F)cn1
subject-of-test: Setaria viridis (SETVI)
Pre-emergence efficacy against SETVI [%]: 100
--
compound: CC(C)CCS(=O)(=O)Oc1ccccc1Oc1ncc(Cl)cn1
subject-of-test: Setaria viridis (SETVI)
Pre-emergence efficacy against SETVI [%]: 100
--
compound: O=S(=O)(CCC(F)(F)F)Oc1c(F)cccc1Oc1ncc(Br)cn1
subject-of-test: Setaria viridis (SETVI)
Pre-emergence efficacy against SETVI [%]: 100
--
compound: O=S(=O)(CCCC(F)(F)F)Oc1ccccc1Oc1ncc(Cl)cn1
subject-of-test: Setaria viridis (SETVI)
Pre-emergence efficacy against SETVI [%]: 90
--
compound: Cc1cccc(Oc2ncc(F)cn2)c1OS(=O)(=O)CCC(F)(F)F
subject-of-test: Setaria viridis (SETVI)
Pre-emergence efficacy against SETVI [%]: 100
